System: P388 leukemia ip, CD2F1 mice, survival T/C
Test Description: NCI In Vivo Anticancer Drug Screen. Data for tumor model P388 Leukemia (intraperitoneal) in CD2F1 (CDF1) mice
Condition: endpoint: median survival time; dose: 200.0 mg/kg/injection; schedule: Q04DX002 (ip); vehicle: saline with Tween-80; higher = longer survival
Toxic doses and inconclusive results are not listed.
Please go through the items and note down their T/C.

INSERT INTO measurements (compound, result) VALUES
  ('CC1=NOC(=O)C1N=Nc1ccc(Br)cc1C (stereo not given)', '98 % of control'),
  ('CCC(C(=O)O)C1(C(=O)O)CCCCCC1 (stereo not given)', '98 % of control'),
  ('COc1ccc(/C=N\N=C(/[O-])c2ccccc2O)cc1.COc1ccc(/C=N\N=C(/[O-])c2ccccc2O)cc1.[Co+2]', '96 % of control');

For every item below, please supply its T/C.
1. Cc1ccc(C(=NN=C(c2ccc(C)cc2)c2ccc(C)cc2)c2ccc(C)cc2)cc1
2. CC1=C(C(=O)Nc2ccccc2)C(c2ccc(Cl)cc2Cl)C(C(=O)Nc2ccccc2)=C(C)N1
3. O=C1c2cc3cc4ccccc4cc3cc2C(=O)c2c(O)ccc(O)c21
4. CC(C)=CCCC(C)=CCON(C)C (mixture of isomers)
5. CCC(c1ccc(OC)cc1)C(NCC(=O)NNC(=O)CNC(c1ccc(OC)cc1)C(CC)c1ccc(OC)cc1)c1ccc(OC)cc1 (stereo not given)
6. O=c1c2ccccc2ncn1S(=O)(=O)c1ccc(N(CCCl)CCCl)cc1
7. CC1(C)C(c2ccccc2)C1(Cl)Cl (stereo not given)

Given back:
1. 93 % of control
2. 101 % of control
3. 99 % of control
4. 101 % of control
5. 86 % of control
6. 118 % of control
7. 93 % of control

---

Test system: P388 leukemia ip, CD2F1 mice, survival T/C
Test Description: NCI In Vivo Anticancer Drug Screen. Data for tumor model P388 Leukemia (intraperitoneal) in CD2F1 (CDF1) mice
Condition: endpoint: median survival time; dose: 3.12 mg/kg/injection; schedule: Q01DX009 (ip); vehicle: saline; higher = longer survival
Toxic doses and inconclusive results are not listed.
Quantity: T/C

Solved cases (3 shown):
INSERT INTO measurements (molecule, quantity, result) VALUES
  ('CC(=O)Oc1ccc2c3c1O[C@H]1[C@@H](OC(C)=O)C=C[C@H]4[C@@H](C2)N(C)CC[C@@]341', 'T/C', '95 % of control'),
  ('CCCCCCCCCCCC[N+]1(CC)CCOCC1', 'T/C', '106 % of control'),
  ('C[C@]12CCC(=O)C=C1CC[C@H]1[C@@H]3CC[C@](O)(C(=O)CF)[C@@]3(C)C[C@H](O)[C@@]12F', 'T/C', '105 % of control');

For every item below, please supply its T/C.
1. O/N=C/C1CCCC[N-]1.O/N=C/C1CCCC[N-]1.O/N=C/C1CCCC[N-]1.[Cu] (stereo unspecified)
2. C=CC(=NC(C)(C)C)Nc1c(Cl)cccc1Cl
3. BrP(Cc1ccccc1-c1ccccc1CP(Br)(c1ccccc1)(c1ccccc1)c1ccccc1)(c1ccccc1)(c1ccccc1)c1ccccc1

Given back:
96 % of control
108 % of control
102 % of control

---

Tested on: P388 leukemia ip, CD2F1 mice, survival T/C
Test Description: NCI In Vivo Anticancer Drug Screen. Data for tumor model P388 Leukemia (intraperitoneal) in CD2F1 (CDF1) mice
Condition: endpoint: median survival time; dose: 240.0 mg/kg/injection; schedule: Q01DX005 (ip); vehicle: saline with Tween-80; higher = longer survival
Toxic doses and inconclusive results are not listed.
Please go through the items and note down their T/C.

INSERT INTO measurements (compound, result) VALUES
  ('COCc1onc(-c2ccc(OC)cc2)c1-c1ccc(OC)cc1', '100 % of control'),
  ('CS(=O)(=O)C(c1nc2nnc(NC(=O)Nc3ccc(Cl)cc3)n2[nH]c1=O)c1nc2nnc(NC(=O)Nc3ccc(Cl)cc3)n2[nH]c1=O', '98 % of control');

For every item below, please supply its T/C.
1. O/N=C(/c1ccccc1)n1nnc2ccccc21
2. Cc1ccccc1C(C)(O)Cc1nccn1Cc1ccccc1 (stereo not given)
3. COc1cc(C(=O)CC(=O)CCC(=O)Nc2ccc(C)c(C)c2)ccc1O
4. COc1ccccc1C1c2cc3c(cc2OC(C)(OC)C1C)OCO3 (stereo not given)
5. C[C@]12CCC(=O)C[C@@H]1CC[C@@H]1[C@@H]2CC[C@]2(C)[C@@H]3OCCC[C@H]3C[C@@H]12
6. CN(C)c1ccc2c(Cl)cc(=O)[nH]c2c1

Given back:
["105 % of control", "96 % of control", "102 % of control", "92 % of control", "90 % of control", "97 % of control"]

For every item below, please supply its T/C.
1. COC(=O)C(=O)C1(c2nc3n(c2O)/C(=N/C(=O)Nc2ccc(Cl)cc2)N=N3)CCCCCC1=O (stereo not given)
2. COc1ccc(C2COc3cc(OC(C)=O)c(OC(C)=O)cc3C2)cc1 (stereo not given)

Given back:
1. 94 % of control
2. 103 % of control

---

System: P388 leukemia ip, CD2F1 mice, survival T/C
Test Description: NCI In Vivo Anticancer Drug Screen. Data for tumor model P388 Leukemia (intraperitoneal) in CD2F1 (CDF1) mice
Condition: endpoint: median survival time; dose: 50.0 mg/kg/injection; schedule: Q04DX003 (ip); vehicle: saline; higher = longer survival
Toxic doses and inconclusive results are not listed.
Please go through the items and note down their T/C.

Solved cases (5 shown):
INSERT INTO results (compound, measurement_target, quantity, result) VALUES
  ('CC(=O)/C(C)=C/C(=O)O', 'P388 leukemia ip, CD2F1 mice, survival T/C', 'T/C', '122 % of control'),
  ('C1CC2CCC1CNC2', 'P388 leukemia ip, CD2F1 mice, survival T/C', 'T/C', '104 % of control'),
  ('O=C1CC(=P(c2ccccc2)(c2ccccc2)c2ccccc2)C(=O)O1', 'P388 leukemia ip, CD2F1 mice, survival T/C', 'T/C', '102 % of control'),
  ('CCOC(=O)C1(c2ccccc2)CCCN(C)CC1 (stereo not given)', 'P388 leukemia ip, CD2F1 mice, survival T/C', 'T/C', '107 % of control'),
  ('COC(OC)c1cc(=O)[nH]c(=S)[nH]1', 'P388 leukemia ip, CD2F1 mice, survival T/C', 'T/C', '95 % of control');

For every item below, please supply its T/C.
1. O=C(c1ccc(Br)cc1)c1ccc(Br)cc1
2. NC(N)=N/N=C/C=N/N=C(N)N
3. O=C(O)C1CSC2(CCCCC2)N1 (stereo not given)
4. CCC(CN)C1=Nc2ccccc2C1 (stereo not given)
5. FC(F)(F)c1ccc2c(c1)N(CCCCl)c1ccccc1S2

Given back:
1: 99 % of control; 2: 100 % of control; 3: 104 % of control; 4: 96 % of control; 5: 94 % of control

---

System: P388 leukemia ip, CD2F1 mice, survival T/C
Test Description: NCI In Vivo Anticancer Drug Screen. Data for tumor model P388 Leukemia (intraperitoneal) in CD2F1 (CDF1) mice
Condition: endpoint: median survival time; dose: 100.0 mg/kg/injection; schedule: Q01DX005 (ip); vehicle: saline; higher = longer survival
Toxic doses and inconclusive results are not listed. Square brackets hold non-standard residues; d marks the D form. Peptide text beside a SMILES is read from it. ξ: configuration not given here. ξE = NC(CCC(=O)O)C(=O)O; ξAbu = CCC(N)C(=O)O
Please go through the items and note down their T/C.

INSERT INTO measurements (molecule, quantity, result) VALUES
  ('NC(CCC(=O)O)C(=O)NC(CCC(=O)O)C(=O)O (stereo not drawn) (H-Glu-Glu-OH; configuration not given here)', 'T/C', '103 % of control');

For every item below, please supply its T/C.
1. CCC(N)C(=O)NCC(=O)NCC(=O)O (stereo not drawn) (H-[ξAbu]-Gly-Gly-OH)
2. CCC1=C(C)CC(CC(=O)OC)C1=O (stereo not drawn)
3. COC(=N)CCCCC(=N)OC
4. CN1CCOC(N2CCOCC2)C(C)(C)C1 (stereo not drawn)
5. C=C[CH2][Sn]([CH3])([CH3])[CH2]C=C
6. CC(C)c1cc(N(C)C)cc(=S)[nH]1

Given back:
103 % of control
97 % of control
97 % of control
88 % of control
107 % of control
94 % of control

For every item below, please supply its T/C.
1. NC(Cc1ccc(O)c(Cl)c1)C(=O)O (stereo not drawn)
2. CC(C)C(O)(C(=O)OCC1=CCN2CCC(O)C12)C(C)O (stereo not drawn)
3. C[S+]1CCC(C(=O)[O-])N1 (stereo not drawn)
4. NCC(=O)NCC(=O)NC(CCC(=O)O)C(=O)O (stereo not drawn) (H-Gly-Gly-[ξE]-OH)
5. O=C(C[n+]1ccccc1)NC(O)C(Cl)(Cl)Cl (stereo not drawn)
6. CN(C)C(=O)CC(O)c1ccccc1 (stereo not drawn)

Given back:
1: 98 % of control; 2: 109 % of control; 3: 98 % of control; 4: 101 % of control; 5: 105 % of control; 6: 105 % of control

For every item below, please supply its T/C.
1. CN(C)CCC(=O)C(=Cc1ccccc1)C(=O)CCN(C)C
2. NC(=O)NCP(=O)(CNC(N)=O)CNC(N)=O
3. CC1OCOC(CO)C(O)C1O (stereo not drawn)
4. COC(=O)C(N)C(C)C (stereo not drawn)
5. O=C1C(O)=C(Cl)C(=O)C(O)=C1Cl

Given back:
99 % of control
97 % of control
105 % of control
92 % of control
90 % of control
